Each entry below carries its reported growth.
# System: RPMI-8226 leukemia
# assay_procedure: NCI-60 one-dose screen, 48 h (100 = growth as untreated, 0 = no growth, -100 = all killed)
# test_parameters: 10 µM unless noted
The panel holds about 83,000 compounds, 20% with a hit somewhere; the sample as a whole holds those more often. The source made the active and inactive calls. How the source made its calls: active means growth percent below 10; inactive means the rest.

{"compound": "CC1(C)C2CCC1(C)C1(C2)OCCS1 (centres undefined)", "system": "RPMI-8226 leukemia", "growth": "113% (inactive)"}
{"compound": "C=C(C)COc1ccc(C(C)(C)C)cc1", "system": "RPMI-8226 leukemia", "growth": "104% (inactive)"}
{"compound": "Cc1ccc([N+](=O)[O-])c(C)n1", "system": "RPMI-8226 leukemia", "growth": "99.4% (inactive)"}
{"compound": "C/C(Cc1ccccc1)=N\\O", "system": "RPMI-8226 leukemia", "growth": "83.3% (inactive)"}
{"compound": "Nc1ccc(F)c(Cl)c1F", "system": "RPMI-8226 leukemia", "growth": "93.7% (inactive)"}
{"compound": "COc1cccc2c1Cc1ccccc1-2", "system": "RPMI-8226 leukemia", "growth": "99.8% (inactive)"}
{"compound": "NC(CCl)=NCC12CC3CC(CC(C3)C1)C2", "system": "RPMI-8226 leukemia", "growth": "-50.4% (active)"}
{"compound": "CCCCCCCCCCCCCCCCCC(=O)NCCNC(=O)CCCCCCCCCCCCCCCCC", "system": "RPMI-8226 leukemia", "growth": "86.4% (inactive)"}
{"compound": "Cc1[nH]c(=S)[nH]c(=O)c1C", "system": "RPMI-8226 leukemia", "growth": "115% (inactive)"}
{"compound": "CC(C)c1ccccc1NC(=O)N1CCC(C(C)C)CC1", "system": "RPMI-8226 leukemia", "growth": "105% (inactive)"}
{"compound": "CNc1ccccc1C(=O)N/N=C/C=C/c1ccccc1", "system": "RPMI-8226 leukemia", "growth": "25.1% (inactive)"}
{"compound": "Cc1ccc(O)c(N)c1", "system": "RPMI-8226 leukemia", "growth": "55.7% (inactive)"}
{"compound": "OC(CBr)CCBr (centres undefined)", "system": "RPMI-8226 leukemia", "growth": "98.8% (inactive)"}
{"compound": "Cc1cc(C)cc(OCC(=O)O)c1", "system": "RPMI-8226 leukemia", "growth": "108% (inactive)"}

###

# Tested on: SF-539 CNS
# assay_procedure: NCI-60 one-dose screen, 48 h (100 = growth as untreated, 0 = no growth, -100 = all killed)
# test_parameters: 10 µM unless noted
The panel holds about 83,000 compounds, 20% with a hit somewhere; the sample as a whole holds those more often.

{"compound": "Cc1cc2c3ccc(C)[n+](C)c3ccc2n1C", "growth (%)": 67.5}
{"compound": "CCCCCC/C=C\\CCCCCCCCCc1cc(O)cc(OC)c1O", "growth (%)": -58.3}
{"compound": "CNc1ccccc1C(=O)N/N=C/C=C/c1ccccc1", "growth (%)": 21.7}
{"compound": "O=C(OC1CCCC1)c1ccccc1Cl", "growth (%)": 98.6}
{"compound": "N=C(N)c1nn(C2OC(CO)C(O)C2O)c2nc[nH]c(=O)c12 (stereo unspecified)", "growth (%)": -43.8}
{"compound": "Cc1cccnc1NC1OC(=O)c2ccccc21 (stereo unspecified)", "growth (%)": 109}
{"compound": "Cc1ccc(C2CCCCC2)cc1Br", "growth (%)": 101}
{"compound": "CC(CCC#N)(CCC#N)C(=O)c1ccccc1", "growth (%)": 115}
{"compound": "Cc1onc(-c2ccccc2Cl)c1C(=O)Cl", "growth (%)": 113}
{"compound": "O=C(O)c1cc(I)ccc1O", "growth (%)": 97.7}
{"compound": "CCCC(=O)CC(=O)c1ccccc1", "growth (%)": 104}
{"compound": "O=C(O)c1cccc(-n2ncc(Cl)c(Cl)c2=O)c1", "growth (%)": 101}
{"compound": "CC(CO)(CO)C(=O)O", "growth (%)": 97.9}
{"compound": "CN1CCN(C(=S)S)CC1", "growth (%)": 104}
{"compound": "CCCC(OC(C)=O)c1ccc2c(c1)OCO2 (stereo unspecified)", "growth (%)": 105}
{"compound": "O=C1C=C[C@H](O)[C@@]2(CO)O[C@@H]12", "growth (%)": 70.1}
{"compound": "CN(C)Cc1ccccn1", "growth (%)": 92.1}
{"compound": "CCOP(=O)(NC(c1ccccc1)c1ccccc1)OCC", "growth (%)": 115}
{"compound": "Ic1cccs1", "growth (%)": 101}
{"compound": "CC(=O)NC(O)C(Cl)Cl (stereo unspecified)", "growth (%)": 90.6}
{"compound": "c1ccc(Nc2ccccn2)nc1", "growth (%)": 94.6}
{"compound": "CCCOCc1cn[nH]n1", "growth (%)": 98.8}
{"compound": "CCCCCCCCCCCCCCCCOc1ccccc1NC(=O)CC(C)=O", "growth (%)": 94.5}
{"compound": "CS(=O)(=O)c1ccc(/C=C\\C(=O)O)cc1", "growth (%)": 91.8}
{"compound": "CC1(C)CCC(C)(C)NC(=S)N1", "growth (%)": 105}
{"compound": "Nc1cccc2cccc(O)c12", "growth (%)": 109}
{"compound": "CCC(=O)Oc1ccc2ccccc2c1", "growth (%)": 96.8}
{"compound": "Nc1cc2c(cc1Cl)C(=O)c1ccccc1C2=O", "growth (%)": -82}
{"compound": "CC(O)C(F)(F)C(F)(F)C(F)(F)F (stereo unspecified)", "growth (%)": 96.6}
{"compound": "Clc1ccc(/C=C/c2ccccn2)cc1", "growth (%)": 94.2}
{"compound": "CCCCCCCCCCCCSC1=C(Cl)C(=O)C(OC)=C(OC)C1=O", "growth (%)": 41.5}
{"compound": "FC(F)(F)c1cc(NC2=NCCN=C(Nc3cc(C(F)(F)F)cc(C(F)(F)F)c3)SS2)cc(C(F)(F)F)c1", "growth (%)": 81.3}
{"compound": "NS(=O)(=O)c1cc(=O)[nH]c(=O)[nH]1", "growth (%)": 111}
{"compound": "O=C(NCc1ccccc1)c1cccc([N+](=O)[O-])c1", "growth (%)": 102}
{"compound": "CCOC(OCC)C(=O)c1ccccc1", "growth (%)": 88.2}
{"compound": "O=C(N/N=C\\c1ccc(Cl)cc1Cl)c1ccncc1", "growth (%)": 105}
{"compound": "O=C(c1ccc(Cl)cc1)N1CCCCC1", "growth (%)": 98.5}
{"compound": "Cc1cc(C)cc(OCC(=O)O)c1", "growth (%)": 96.2}
{"compound": "Cc1cc(=O)n(Nc2ccccc2)c(O)c1C#N", "growth (%)": 104}
{"compound": "Nc1ncc([N+](=O)[O-])cn1", "growth (%)": 105}
{"compound": "S=C(NCc1ccccc1)N1CCC(CCCC2CCN(C(=S)NCc3ccccc3)CC2)CC1", "growth (%)": 99.1}
{"compound": "CN(C)c1ccc2c(N(C)C)cc(N(C)C)nc2c1", "growth (%)": 84.9}
{"compound": "Cc1ccc(C)c(CCO)c1", "growth (%)": 97.2}
{"compound": "CCOc1ccc2c(c1)c(C)cc(C)[n+]2CC", "growth (%)": 88.7}
{"compound": "NC(CSSCC(N)C(=O)O)C(=O)O (stereo unspecified)", "growth (%)": -36.8}
{"compound": "Cc1cccc(-[n+]2noc(N)n2)c1", "growth (%)": 91.6}
{"compound": "CCC1CCC(C)NC1 (stereo unspecified)", "growth (%)": 99.7}
{"compound": "COC(=O)c1ccc([N+](=O)[O-])c(C)c1", "growth (%)": 96.2}
{"compound": "C=C1SC(=Nc2c(C)cccc2C)N(c2nc(Cl)nc(Cl)n2)C12CCCCC2", "growth (%)": 116}
{"compound": "CC(C)Sc1ncnc2nc[nH]c12", "growth (%)": 100}
{"compound": "CC(C)(C)CC1(C)NC(=O)NC1=O (stereo unspecified)", "growth (%)": 109}
